This section presents compounds with their documented IC50 values.
- Tested System: HIV integrase (Human immunodeficiency virus type 1 group M subtype B, UniProt P04585)
- Measurement Description: inhibitory activities against integrase (Experimental Example 1)
- Type: biochemical
- Measurement Conditions: integrase inhibition, OD405 nm plate assay; read-out: Experimental example 1 (IC50, ng/ml) (converted)
Number in nM, nothing else.

{"columns": ["Compound", "Tested System", "Observable", "Unit Tag", "Recorded Value"],
 "data": [
  ["Cc1nc(-c2nnc(Cc3ccc(F)cc3)o2)c(O)c(=O)[nH]1 [Comparative example 1, reference compound]", "HIV integrase (Human immunodeficiency virus type 1 group M subtype B, UniProt P04585)", "IC50", "nM", 92.6]
]}

stdin: State its IC50 for this compound: `CN(C(=O)c1ccccn1)C(C)(C)c1nc(-c2ncc(Cc3ccc(F)cc3)s2)c(O)c(=O)[nH]1`
stdout: 12.1

stdin: Output IC50 of CCN1C(C)n2c(nc(-c3ncc(Cc4ccc(F)cc4)s3)c(O)c2=O)C1(C)C (stereo not shown)
stdout: 15.9

stdin: State its IC50: `CC(=O)N1CCC[C@H]1c1nc(-c2nnc(Cc3ccc(F)cc3)o2)c(O)c(=O)n1C`
stdout: 138

Source listed as patent US20100204237A1.
